# subjectOfTest: T1, cynomolgus CX3CR1 (cynomolgus, UniProt P49238 1-355 (human entry))
# T1 construct: transiently expressed on HEK293T cells; also called cyCX3CR1; cyno CX3CR1
# T1 chain: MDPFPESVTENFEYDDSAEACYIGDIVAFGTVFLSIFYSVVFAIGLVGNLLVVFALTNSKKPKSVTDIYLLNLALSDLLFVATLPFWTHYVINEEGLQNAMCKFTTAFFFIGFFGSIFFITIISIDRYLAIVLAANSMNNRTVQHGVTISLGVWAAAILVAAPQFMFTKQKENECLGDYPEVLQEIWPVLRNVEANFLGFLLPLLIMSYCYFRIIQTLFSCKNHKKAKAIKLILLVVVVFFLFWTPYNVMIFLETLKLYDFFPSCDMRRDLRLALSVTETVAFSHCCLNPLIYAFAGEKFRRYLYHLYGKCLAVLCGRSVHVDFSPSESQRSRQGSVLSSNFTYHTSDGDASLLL
# testDetails: FACS binding, cynomolgus against human CX3CR1

{"binder": "CX3CR1BIIPMP18E6 (VHH, family 13; also called 18E06; CX3CR1BII18E06; not shown: C-terminal c-myc and His6 tags) VHH: KVQLVESGGGLVQPGGSLRLSCATSGTIFSNNAMGWYRQAPGKKRDLVASISSSGSTNYADSVKGRFTVSRDNDKNTGYLQMNSLKPEDTGVYYCTLDARRGWNTAYWGQGAQVTVSS", "ratio (cynomolgus/human EC50)": 9}
{"binder": "CX3CR1BIIPMP54D5 (VHH, also called 54D05; CX3CR1BII54D5; not shown: C-terminal c-myc and His6 tags) VHH: EVQLVESGGGSVQAGESLRLSCAASGSIFSSNAMAWYRQAPPGKQRDLVALINSVGITKYADSVKGRFTISSDNAKNTVYLEMNSLKPEDTAVYYCTSDGRRGWDTRYWGQGTQVTVSS", "ratio (cynomolgus/human EC50)": 59.6}
{"binder": "CX3CR1BIIPMP54A7 (VHH, also called 54A07; not shown: C-terminal c-myc and His6 tags) VHH: EVQLVESGGGSVQAGESLRLSCAASGTIFSSNAMAWYRQAPGKQRDLVAGINSVDITKYADSVKGRFTISRDNAKNTVYLQMNSLKPEDTAVYYCTSDPRRGWNTRYWGQGTQVTVSS", "ratio (cynomolgus/human EC50)": 0.1}
{"binder": "CX3CR1BIIPMP54A12 (VHH, also called CX3CR1BII54A12; not shown: C-terminal c-myc and His6 tags) VHH: EVQLVESGGGSVQAGESLRLSCAASGSIFSSNAMAWYRQAPGKQRDLVAVINSVGITKYADSVKGRFTISGDNAKNTVYLQMNSLKPEDTAVYYCTSDARRGWDTRYWGQGTQVTVSS", "ratio (cynomolgus/human EC50)": 3.3}
